Recorded values, source patent US20240124432A1.

- System: LOLPE
- protocol text: Pre-emergence biological efficacy
- Format: in vivo
- settings: Lolium perenne, 312 h, evaluated after 13 days, read-out: damage to plant (100=total damage to plant; 0=no damage to plant)
value kind: pest or weed control at 250 g/ha

{"columns": ["compound", "pest or weed control at 250 g/ha"],
 "data": [
  ["CCOC(=O)C1(C)CC(c2cc(-c3ncc(C#N)cc3Cl)c(F)cc2Cl)=NO1 (stereo not shown)", "20%"]
]}

Report pest or weed control at 250 g/ha for every entry below.
1. CCOC(=O)C1(C)CC(c2cc(-c3cncc(C(F)(F)F)n3)c(F)cc2Cl)=NO1 (stereo not shown)
2. CCOC(=O)C1(C)CC(c2cc(-c3c(Cl)cc(C(F)(F)F)c[n+]3[O-])c(F)cc2Cl)=NO1 (stereo not shown)

1. 0%
2. 100%

Quick check: pest or weed control at 250 g/ha of CCOC(=O)C1(C)CC(c2cc(-c3cc(C)cnc3F)c(F)cc2Cl)=NO1 (stereo not shown) ?
0%
